# system: HIV-1 Env of pseudovirus JRCSF (HIV-1) (UniProt P20871)
# assay_procedure: cell-based or functional assay
Reported Primary Neutralization Index (B cell culture supernatant) by item:
reported_metric: Primary Neutralization Index (B cell culture supernatant)

binder | quantitative_readout
PGT-127 (B cell culture well 5145_B14) (antibody, V domains shown) VH: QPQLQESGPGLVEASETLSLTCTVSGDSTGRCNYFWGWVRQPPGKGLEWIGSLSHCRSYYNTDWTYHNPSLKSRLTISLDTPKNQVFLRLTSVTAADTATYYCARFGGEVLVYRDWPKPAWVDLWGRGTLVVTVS VL: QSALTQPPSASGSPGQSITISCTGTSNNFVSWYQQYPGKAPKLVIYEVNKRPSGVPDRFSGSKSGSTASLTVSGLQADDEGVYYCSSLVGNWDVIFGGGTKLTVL | 31.1
PGT-125 (B cell culture well 5123_A6) (antibody, V domains shown) VH: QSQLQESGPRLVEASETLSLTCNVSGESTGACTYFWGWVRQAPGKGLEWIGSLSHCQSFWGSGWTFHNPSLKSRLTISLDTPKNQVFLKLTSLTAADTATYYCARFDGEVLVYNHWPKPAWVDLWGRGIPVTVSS VL: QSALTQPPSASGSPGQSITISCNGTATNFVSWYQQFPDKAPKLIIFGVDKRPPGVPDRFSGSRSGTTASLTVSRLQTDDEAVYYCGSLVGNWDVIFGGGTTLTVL | 1730
PGT-130 (B cell culture well 5147_N6) (antibody, V domains shown) VH: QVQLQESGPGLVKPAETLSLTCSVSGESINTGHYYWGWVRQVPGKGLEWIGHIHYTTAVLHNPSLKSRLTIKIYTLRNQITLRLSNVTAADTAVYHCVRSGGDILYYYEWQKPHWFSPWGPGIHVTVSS VL: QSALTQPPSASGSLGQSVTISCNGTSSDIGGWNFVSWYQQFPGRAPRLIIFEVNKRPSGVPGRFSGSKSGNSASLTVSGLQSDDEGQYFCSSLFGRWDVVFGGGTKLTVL | 19.3
PGT-126 (B cell culture well 5141_B17) (antibody, V domains shown) VH: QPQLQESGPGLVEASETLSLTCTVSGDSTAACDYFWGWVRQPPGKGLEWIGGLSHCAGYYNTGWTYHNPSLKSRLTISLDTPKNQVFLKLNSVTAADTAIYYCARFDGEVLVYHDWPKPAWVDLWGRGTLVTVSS VL: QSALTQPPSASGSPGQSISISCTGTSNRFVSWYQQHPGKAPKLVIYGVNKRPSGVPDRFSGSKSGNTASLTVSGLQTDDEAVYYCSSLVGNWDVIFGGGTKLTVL | 1410
PGT-128 (B cell culture well 5114_A19) (antibody, V domains shown) VH: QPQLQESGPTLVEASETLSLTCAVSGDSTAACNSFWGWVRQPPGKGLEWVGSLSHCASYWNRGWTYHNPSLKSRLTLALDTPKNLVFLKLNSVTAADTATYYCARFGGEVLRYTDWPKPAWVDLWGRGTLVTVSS VL: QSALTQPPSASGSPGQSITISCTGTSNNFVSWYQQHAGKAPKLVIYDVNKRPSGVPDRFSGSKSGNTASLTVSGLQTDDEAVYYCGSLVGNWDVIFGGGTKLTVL | 77.5
PGT-131 (B cell culture well 5136_H1) (antibody, V domains shown) VH: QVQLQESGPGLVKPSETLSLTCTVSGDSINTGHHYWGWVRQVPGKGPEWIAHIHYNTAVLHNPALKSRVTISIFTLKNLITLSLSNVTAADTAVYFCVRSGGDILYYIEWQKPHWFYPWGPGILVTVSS VL: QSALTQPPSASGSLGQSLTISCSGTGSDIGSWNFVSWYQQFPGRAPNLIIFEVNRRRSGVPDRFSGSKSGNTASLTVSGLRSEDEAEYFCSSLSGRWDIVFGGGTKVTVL | 6.2
